# Target Or Test System: acetylcholine muscarinic M1 receptor (CHOnfat/hM1 cells) (Homo sapiens)
# Sequence (P11229 whole entry): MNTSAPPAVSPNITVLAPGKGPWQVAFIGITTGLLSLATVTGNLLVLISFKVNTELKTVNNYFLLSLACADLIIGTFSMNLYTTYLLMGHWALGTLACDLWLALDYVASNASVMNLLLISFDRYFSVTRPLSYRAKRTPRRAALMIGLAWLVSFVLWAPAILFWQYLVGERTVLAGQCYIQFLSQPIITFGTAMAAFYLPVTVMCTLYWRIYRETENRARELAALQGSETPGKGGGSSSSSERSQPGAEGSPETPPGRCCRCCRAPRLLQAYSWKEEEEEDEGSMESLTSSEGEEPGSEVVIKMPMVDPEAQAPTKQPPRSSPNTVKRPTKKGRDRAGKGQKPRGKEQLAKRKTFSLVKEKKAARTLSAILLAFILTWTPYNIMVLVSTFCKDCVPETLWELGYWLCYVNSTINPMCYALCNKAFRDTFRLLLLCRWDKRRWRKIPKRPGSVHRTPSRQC
# Experimental Details: muscarinic FLIPR intracellular calcium assay for M1 positive allosteric modulator activity (acetylcholine EC20)
# Condition Label: 4 min preincubation, then EC20 acetylcholine (3 nM final), read-out: IP Value (inflection point)
pEC50: −log10 of the molar value.
Readout: pEC50

# annotated cases, reported pEC50 shown
O=c1c2cn(Cc3ccc(-n4cccn4)cc3)c3ccsc3c-2nn1-c1ccccc1F; 7.70
O=c1c2cn(Cc3ccc(-n4cccn4)cc3)c3ncccc3c-2nn1-c1ccccc1F; 6.50
O=c1c2cn(Cc3ccc(-n4cccn4)cc3)c3ccsc3c-2nn1-c1c(Cl)cncc1Cl; 7.19
O=c1c2cn(Cc3ccc(-n4cccn4)cc3)c3cccnc3c-2nn1-c1ccccc1F; 6.80

P = O=c1c2cn(Cc3ccc(-n4cccn4)cc3)c3c(c-2nn1-c1ccccc1F)CCC3
Q = Cc1ccccc1-n1nc2c3sccc3n(Cc3ccc(-n4cccn4)cc3)cc-2c1=O
### Prompt Would you mind telling me which has the lower recorded pEC50 between P and Q ? Answer with the label corresponding to your selection.
### Response P

The reported numbers originate from patent US8426438B2.
